target: full length recombinant Pim-1 protein (Homo sapiens); construct: by full length recombinant Pim-1, Pim-2, or Pim-3 protein; hexahistidine tag followed by a thrombin cleavage site (N); made in house; host or cells: Sf9 (baculovirus) or E. coli (pET28); assay: Pim-1 enzyme assay (HTRF, phosphorylation of biotinylated-BAD (S112) peptide); format: biochemical; conditions: read-out: Pim_1_IC50
Sequence (P11309 whole entry): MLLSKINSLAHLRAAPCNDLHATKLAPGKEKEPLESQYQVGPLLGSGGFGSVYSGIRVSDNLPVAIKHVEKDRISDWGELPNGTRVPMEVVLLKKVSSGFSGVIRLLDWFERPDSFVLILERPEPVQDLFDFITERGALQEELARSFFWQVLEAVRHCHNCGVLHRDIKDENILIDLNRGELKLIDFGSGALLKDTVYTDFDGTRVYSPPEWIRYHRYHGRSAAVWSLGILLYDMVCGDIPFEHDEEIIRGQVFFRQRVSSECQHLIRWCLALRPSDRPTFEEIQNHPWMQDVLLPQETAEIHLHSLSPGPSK
pIC50: −log10 of the molar value. Structures can show the parent of a compound that is named as a salt.
Everything with pIC50 lower than 8 is Not met; everything else, including exactly 8, is Met.

[
  {
    "molecule": "c1cc2[nH]cc(-c3cncc(C4CC4)n3)c2cc1-c1cncc(C2CC2)n1",
    "category label": "Not met"
  },
  {
    "molecule": "COC(=O)c1ccc2[nH]nc(-c3nccc(O[C@@H]4CCCNC4)n3)c2c1",
    "category label": "Not met"
  },
  {
    "molecule": "O=C(O)c1ccc2[nH]cc(-c3nccc(N[C@@H]4CCCNC4)n3)c2c1",
    "category label": "Not met"
  },
  {
    "molecule": "O=c1cc(-c2n[nH]c3ccc(-c4c(F)cccc4F)cc23)nc(N2CC[C@H](O)C2)[nH]1",
    "category label": "Not met"
  },
  {
    "molecule": "C=C(Cl)c1ccccc1-c1ccc2[nH]nc(-c3cncc(O[C@H]4CNCCC45CC5)n3)c2c1",
    "category label": "Not met"
  },
  {
    "molecule": "COc1cc(-c2c[nH]c3ccc(-c4c(F)cccc4F)cc23)nc(N2CCC(N)CC2)n1",
    "category label": "Not met"
  },
  {
    "molecule": "COc1ncccc1-c1ccc2[nH]cc(-c3cncc(O[C@@H]4CCCNC4)n3)c2c1",
    "category label": "Not met"
  },
  {
    "molecule": "O=c1cc(-c2n[nH]c3ccc(-c4ccc(Cl)cc4F)cc23)nc(O[C@@H]2CNCC[C@H]2F)[nH]1 (racemic) [Example 283, trifluoroacetate]",
    "category label": "Met"
  },
  {
    "molecule": "Fc1ccc(F)c(-c2ccc3[nH]nc(-c4cncc(O[C@H]5CNCCC56CC6)n4)c3c2)c1",
    "category label": "Met"
  },
  {
    "molecule": "c1cc(-c2ccc3[nH]cc(-c4cncc(O[C@@H]5CCCNC5)n4)c3c2)cc(-c2nnn[nH]2)c1",
    "category label": "Not met"
  },
  {
    "molecule": "COc1cnnc(-c2c[nH]c3ccc(-c4ccccc4F)nc23)c1",
    "category label": "Not met"
  },
  {
    "molecule": "CN1CCC(Oc2cncc(-c3n[nH]c4ccc(-c5c(F)cccc5F)cc34)n2)CC1",
    "category label": "Not met"
  },
  {
    "molecule": "O[C@@H]1CN(c2cncc(-c3n[nH]c4ccc(-c5c(F)cccc5F)cc34)n2)CC[C@@H]1O (single isomer, unassigned) [Example 250]",
    "category label": "Not met"
  },
  {
    "molecule": "CS(=O)(=O)c1cc(F)c(-c2ccc3[nH]nc(-c4cncc(O[C@H]5CNCCC56CC6)n4)c3c2)c(F)c1",
    "category label": "Met"
  },
  {
    "molecule": "CC1CCCN(c2cnc(-c3ccc4[nH]cc(-c5cncc(O[C@@H]6CCCNC6)n5)c4c3)cn2)C1 (mixture of isomers)",
    "category label": "Not met"
  },
  {
    "molecule": "CC(C)Oc1ccc(-c2ccc3[nH]cc(-c4cncc(O[C@@H]5CCCNC5)n4)c3c2)cc1C#N",
    "category label": "Not met"
  },
  {
    "molecule": "Fc1cccc(F)c1-c1ccc2[nH]nc(-c3cncc(Oc4cccnc4)n3)c2c1",
    "category label": "Not met"
  },
  {
    "molecule": "CC(C)Nc1cc(=O)[nH]c(-c2c[nH]c3ccc(-c4c(F)cccc4F)cc23)n1",
    "category label": "Not met"
  },
  {
    "molecule": "Cn1nccc1-c1ccc2[nH]nc(-c3cncc(O[C@H]4CNCCC45CC5)n3)c2c1",
    "category label": "Not met"
  },
  {
    "molecule": "Clc1ccccc1-c1ccc2[nH]nc(-c3cncc(O[C@H]4CNCCC45CC5)n3)c2c1",
    "category label": "Met"
  },
  {
    "molecule": "Fc1cnccc1-c1ccc2[nH]cc(-c3cncc(O[C@@H]4CCCNC4)n3)c2c1",
    "category label": "Met"
  },
  {
    "molecule": "COC(=O)c1ccc2[nH]nc(-c3nccc(N[C@@H]4CCCNC4)n3)c2c1",
    "category label": "Not met"
  }
]
